Molecular target: Gamma-secretase (Homo sapiens) (UniProt Q96BI3+Q9NZ42+Q8WW43+P49768+Q92542+P49810)
Test: Inhibition of gamma-secretase (unknown origin) expressed in N2a NL/N cells coexpressing betaAPPNL and NotchdeltaE assessed as Abeta42 secretion at 100 nM by ELISA
Format: cell-based
Active and inactive are the calls of the source. No cut-off for these calls is given here.
// allowed return values: active, inactive

Observe how each entry below is paired with its result.
>>> discrete_label("CC(=O)N[C@H]1CCC[C@@H]1C(=O)N[C@H]1CCC[C@@H]1C(=O)N[C@H]1CCC[C@@H]1C(=O)N[C@H]1CCC[C@@H]1C(=O)N[C@H]1CCC[C@@H]1C(=O)N[C@@H](CCC(=O)O)CC(=O)N[C@H]1CCC[C@@H]1C(=O)N[C@H]1CCC[C@@H]1C(=O)N[C@H]1CCC[C@@H]1C(=O)N[C@H]1CCC[C@@H]1C(=O)N[C@H]1CCC[C@@H]1C(=O)N[C@H]1CCC[C@@H]1C(N)=O")
"inactive"
>>> discrete_label("CC(=O)N[C@H]1CCC[C@@H]1C(=O)N[C@H]1CCC[C@@H]1C(=O)N[C@H]1CCC[C@@H]1C(=O)N[C@H]1CCC[C@@H]1C(=O)N[C@H]1CCC[C@@H]1C(=O)N[C@H]1CCC[C@@H]1C(=O)N[C@H]1CCC[C@@H]1C(=O)N[C@H]1CCC[C@@H]1C(=O)N[C@@H](CCC(=O)O)CC(=O)N[C@H]1CCC[C@@H]1C(=O)N[C@H]1CCC[C@@H]1C(=O)N[C@H]1CCC[C@@H]1C(N)=O")
"inactive"
>>> discrete_label("CC(=O)N[C@H]1CCC[C@@H]1C(=O)N[C@H]1CCC[C@@H]1C(=O)N[C@@H](C)CC(=O)N[C@H]1CCC[C@@H]1C(=O)N[C@H]1CCC[C@@H]1C(=O)N[C@H]1CCC[C@@H]1C(=O)N[C@H]1CCC[C@@H]1C(=O)N[C@H]1CCC[C@@H]1C(=O)N[C@H]1CCC[C@@H]1C(=O)N[C@H]1CCC[C@@H]1C(=O)N[C@H]1CCC[C@@H]1C(=O)N[C@H]1CCC[C@@H]1C(N)=O")
"active"
>>> discrete_label("CC(=O)N[C@H]1CCC[C@@H]1C(=O)N[C@H]1CCC[C@@H]1C(=O)N[C@H](CC(=O)N[C@H]1CCC[C@@H]1C(=O)N[C@H]1CCC[C@@H]1C(=O)N[C@H]1CCC[C@@H]1C(=O)N[C@H]1CCC[C@@H]1C(=O)N[C@H]1CCC[C@@H]1C(=O)N[C@H]1CCC[C@@H]1C(=O)N[C@H]1CCC[C@@H]1C(=O)N[C@H]1CCC[C@@H]1C(=O)N[C@H]1CCC[C@@H]1C(N)=O)CC(C)C")
"active"
>>> discrete_label("CC(=O)N[C@H]1CCC[C@@H]1C(=O)N[C@H]1CCC[C@@H]1C(=O)N[C@H]1CCC[C@@H]1C(=O)N[C@H]1CCC[C@@H]1C(=O)N[C@H]1CCC[C@@H]1C(=O)N[C@H]1CCC[C@@H]1C(=O)N[C@H]1CCC[C@@H]1C(=O)N[C@H]1CCC[C@@H]1C(=O)N[C@@H](CC(=O)N[C@H]1CCC[C@@H]1C(=O)N[C@H]1CCC[C@@H]1C(=O)N[C@H]1CCC[C@@H]1C(N)=O)[C@@H](C)O")
"inactive"

In the following, a different compound is considered.
Exercise: // outcome(item) with item = CC(=O)N[C@H]1CCC[C@@H]1C(=O)N[C@H]1CCC[C@@H]1C(=O)N[C@H]1CCC[C@@H]1C(=O)N[C@H]1CCC[C@@H]1C(=O)N[C@H]1CCC[C@@H]1C(=O)N[C@@H](CC(=O)N[C@H]1CCC[C@@H]1C(=O)N[C@H]1CCC[C@@H]1C(=O)N[C@H]1CCC[C@@H]1C(=O)N[C@H]1CCC[C@@H]1C(=O)N[C@H]1CCC[C@@H]1C(=O)N[C@H]1CCC[C@@H]1C(N)=O)[C@@H](C)O
Key: inactive
